target: KHNYN ex-diKH (human, UniProt O15037 8-200); experiment: EMSA; 20 uM protein, 0.2 uM RNA; BLI: 20 mM Tris pH 8.0, 50 mM NaCl, 0.5 mM TCEP, 0.01% Tween 20, 8 U/ml RNasin Plus, 25 °C; EMSA: 20 mM Tris pH 8.0, 50 mM NaCl, 0.5 mM TCEP, 5% glycerol, room; conditions: protein: recombinant; tags: N-terminal StrepII tag removed by HRV 3C protease; label: 5'-FAM
Sequence (O15037 8-200): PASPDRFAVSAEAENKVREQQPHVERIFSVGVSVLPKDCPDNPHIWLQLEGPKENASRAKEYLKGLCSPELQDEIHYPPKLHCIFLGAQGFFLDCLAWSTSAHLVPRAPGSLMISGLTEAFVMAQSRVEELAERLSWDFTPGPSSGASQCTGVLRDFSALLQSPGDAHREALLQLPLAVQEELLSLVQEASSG
reported_metric: binding result

• GCAACCACCACUCUAUUUUGUGCAUCAGAUGCU (ssRNA) [CpG-depleted 33mer] = no binding
• GUAACUAAUACUCUAUUUUGUUAAUCAGAUAAU (ssRNA) [AU-rich 33mer] = no binding
• CUCCUCCCUACACUCCCCUCUCCCGCCGCCCCU (ssRNA) [C-rich 33mer] = no binding
• GUUUCUUUUACUCUUUGUUACUUUUCAGUUAAU (ssRNA) [U-rich 33mer] = no binding
• AUAACAAAUACACUAAAAUACAAAUCAGAAAAU (ssRNA) [A-rich 33mer] = no binding
• GCAACGACGACGCUAUUUUGCGCAUCAGACGCG (ssRNA) [CpG-rich 33mer] = no binding
